Protocol: Selectivity index, ratio of IC50 for rat L6 cells to IC50 for chloroquine/pyrimethamine-resistant Plasmodium falciparum K1
Assay type: toxicity, cell-based
Settings: read-out: Ratio IC50
selectivity ratio vs 20: at or above is condition met, below is condition not met.

Example entries and their recorded answers appear below.
NCCCNc1nc2ccccc2c2[nH]c3ccccc3c12 = condition not met
Cc1ccc2nc(NCCCNC(=O)Nc3ccccc3)c3c4ccccc4[nH]c3c2c1 = condition met
S=C(NCCCNc1nc2ccccc2c2[nH]c3ccccc3c12)Nc1ccccc1 = condition not met
CC(CNC(=O)Nc1ccccc1)CNc1nc2ccc(Cl)cc2c2[nH]c3ccccc3c12 (stereo unspecified) = condition met
O=C(NCCCNc1nc2ccc(Cl)cc2c2[nH]c3ccccc3c12)Nc1ccccc1 = condition met
CC(C)(CN)CNc1nc2ccc(Cl)cc2c2[nH]c3ccccc3c12 = condition met
NCCCCCCNc1nc2ccccc2c2[nH]c3ccccc3c12 = condition not met
O=C(NCCCCCCNc1nc2ccccc2c2[nH]c3ccccc3c12)Nc1ccccc1 = condition met

[Q] Determine whether measured selectivity ratio meets or exceeds 20 for `CN(C)CCCNc1nc2ccccc2c2[nH]c3ccccc3c12`
[A] condition met

[Q] Determine whether measured selectivity ratio meets or exceeds 20 for `NCCCNc1nc2ccc(Cl)cc2c2[nH]c3ccccc3c12`
[A] condition not met

[Q] Determine whether measured selectivity ratio meets or exceeds 20 for `O=C(NCCCNc1nc2ccccc2c2[nH]c3ccccc3c12)c1cccs1`
[A] condition met

[Q] Determine whether measured selectivity ratio meets or exceeds 20 for `COc1ccc2nc(NCCCNC(=O)Nc3ccccc3)c3c4ccccc4[nH]c3c2c1`
[A] condition met

[Q] Determine whether measured selectivity ratio meets or exceeds 20 for `O=C(NCCCNc1nc2ccccc2c2[nH]c3ccccc3c12)Nc1ccccc1`
[A] condition met

[Q] Determine whether measured selectivity ratio meets or exceeds 20 for Cn1cc2c3ccccc3nc-2c2ccccc21 [ISOCRYPTOLEPINE]
[A] condition not met

[Q] Determine whether measured selectivity ratio meets or exceeds 20 for `O=C(NCCCNc1nc2ccc(Br)cc2c2[nH]c3ccccc3c12)Nc1ccccc1`
[A] condition met

[Q] Determine whether measured selectivity ratio meets or exceeds 20 for `O=S(=O)(NCCCNc1nc2ccccc2c2[nH]c3ccccc3c12)c1ccccc1`
[A] condition not met

[Q] Determine whether measured selectivity ratio meets or exceeds 20 for `CC(C)(CNC(=O)Nc1ccccc1)CNc1nc2ccc(Cl)cc2c2[nH]c3ccccc3c12`
[A] condition met

[Q] Determine whether measured selectivity ratio meets or exceeds 20 for `Cn1c2ccccc2c2c(NCCCN)nc3ccccc3c21`
[A] condition not met

[Q] Determine whether measured selectivity ratio meets or exceeds 20 for CC(CN)CNc1nc2ccc(Cl)cc2c2[nH]c3ccccc3c12 (stereo unspecified)
[A] condition met

[Q] Determine whether measured selectivity ratio meets or exceeds 20 for `O=C(NCCCNc1nc2ccc(F)cc2c2[nH]c3ccccc3c12)Nc1ccccc1`
[A] condition met

[Q] Determine whether measured selectivity ratio meets or exceeds 20 for `NCCCCCNc1nc2ccccc2c2[nH]c3ccccc3c12`
[A] condition met
